Documented apparent KD of MS2 coat protein across a set of sequences
test system: MS2 coat protein; experiment: apparent KD of MS2 coat protein; higher = weaker reporter binding; settings: Eterna round: R107; input ligand: theophylline 20 uM
Could you give me the number in µM? Just the number is fine.

Example results:
seq_text="UACACAUGACAUGAUACCAGCCCAUGUGAACAUGAGGAUCACCCAUGUAUGAGGACAUGAGGCCCUUGGCAGCAUGUAUACAUGA [Same State Theophylline B 2]" measured_parameter="apparent KD of MS2 coat protein" units_text=µM data_value=0.0127
seq_text="UGUACAUGAGGAUCACCCAUGUUACAUGAUACCAGACAUGAGAGUGUCCCUUGGCAGCAUGGAGCUGAUACGGCGGGAAGCCGGA [#09 SameState-TheophyllineA]" measured_parameter="apparent KD of MS2 coat protein" units_text=µM data_value=0.0404
seq_text="AUCCACAGCCGAAGGAGCGCAGUAGGAUGACAUGAGGAUCACCCAUGUGUGUGAUGUGGAUUGCAGGUAGGUCGCGGAGUGGAUU [Exclusion - Arginine B (Freestyle 9)]" measured_parameter="apparent KD of MS2 coat protein" units_text=µM data_value=0.082

Prompt line: Which measured apparent KD of MS2 coat protein value corresponds to UAAUUCACUAUUCACGGUCCGAUGUUCGAUACCAGAUCAUUUCGAAUCCCUUGGCAGCGAUUAACAUGAGGAUCACCCAUGUAAC [theeternabot_exclusion_MS2_Theo_A_35] ?
Response line: 0.0406

Prompt line: Endpoint output: apparent KD of MS2 coat protein of AGUAAUCUAUCAGAUACCAGACCCUCUUUAACAUGAGGAUCACCCAUGUCUAUGUUCUACGUCCCUUGGCAGCUGUAAAUGAUAA [JR_SSTheophyB_Sub002] . Value?
Response line: 0.08

Prompt line: // query apparent KD of MS2 coat protein value for entry AGCUCGCGUCCUCAAGCGUCAAAGACGCGUCGAGGACCGGUACGGCCGCCACUCGACCUGAGGAUCACCCAGGUUUAAGCGAGCA [TrypAX 6 #SwitchBubble #AlternativeMS2 #MS2Late #CuTurnoff]
Response line: 0.02

Prompt line: Find the recorded apparent KD of MS2 coat protein belonging to GAUAUGGAAACAUGUCAGAUCCUUACCGGUCGAGGACCGGUACGGCCGCCACUCGAAAACGAGGAACAUGAGGAUCACCCAUGUA [Ex Tryptophan A 20] and report it.
Response line: 0.0504

Prompt line: Fill blank: measured apparent KD of MS2 coat protein of the sequence ACGACGCAUAGUGAUACCAGUACAACAUGAGGAUCACCCAUGUCACAUAUGUUGUAAUAGUGCCCUUGGCAGCACUAUGCGUCAG [SSTheo B #3] is ____.
Response line: 0.106

###

apparent KD of K4 kissing-loop reporter: recorded values
tested on: K4 kissing-loop RNA reporter; assay: apparent KD of K4 kissing-loop reporter; higher = weaker reporter binding; settings: Eterna round: R107; input ligand: FMN 200 uM;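 also: bound reporter read as fluorescence of individual clusters on recovered sequencing chips by microscopy, with normalized cluster intensities fitted with a binding model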
Please state the figure in nM; there is no need to write the unit.

seq_text="CCUAUCUCAUACGAUACCAGUCAAUGAUCUUUGAUCAAUGCCAUCACCGAGUGAUGUUCGGACCCUUGGCAGCGUAUGAGAUGGG [whbob_Ex_Theo_B_sa104]" target_desc="K4 kissing-loop RNA reporter" data_value=276

Prompt line: Look up apparent KD of K4 kissing-loop reporter for this sequence: UUUUUGGUUUAGAGUGAUGUUCCUUGUUUUCGAGGACCGGUACGGCCGCCACUCGAAAAGAAAAGAAAAGAAAAGAGUGAUGUUU [BDazzled - #1 SS Tryptophan A]
Response line: 342

Prompt line: State the recorded apparent KD of K4 kissing-loop reporter for this entry: AAGUGUGUGGCGGCCGCCACUAGAAUCCAGUGAUGUUGGAGAUAUCACGUAAGUGAUAUCCACCAUAGGACCGGGCCAUAUAGAA [Same State - Tryptophan B (Freestyle 13)]
Response line: 1300

Prompt line: Sample CGUCGGUAGUGAUGUUGCCACGACGCUUUUAAGGAUAUAAGCUAAGUUAGAAGGUAAGAGAGUCAGCCCGGUGGCCUUAGAGUAG [theeternabot_exclusion_KL_FMN_A_17] — what was its apparent KD of K4 kissing-loop reporter?
Response line: 257

Prompt line: If you can, please state the reported apparent KD of K4 kissing-loop reporter value of UGAUUUAACUGAAGGAGCGGCAAUUGAUAAGUAAAUAUAGUGAUGUUAUAUAAGAUAGAGAGCCAGGUAGGUCGCAGAGGUAUUU [ExArgB.N] .
Response line: 173

Prompt line: Field request: apparent KD of K4 kissing-loop reporter | item: AUGAGGUGACUAAAUAAUAAGGGAAUUGAUACCAGACAGAAUUCUGUCCCUUGGCAGCAGUGAUGUUGUUGCAAGUCAGCUCAAA [AK1.1 Exc Theophylline A]
Response line: 265

###

system: MS2 coat protein; assay: apparent KD of MS2 coat protein; designed switch direction (-1 OFF switch, 1 ON switch): 1; higher = weaker reporter binding; details: Eterna round: R95; input ligand: microRNA oligo, concentration not stated
Cut-off 0.3 µM on apparent KD of MS2 coat protein, inclusive. At or above means 1; below means -1.

seq_text="AGUGAAGAAGCUGAGGAUAUCGUAAGGAGGACAUGAGGAUCACCCAUGUGUGUGGAAUUGGAGGACGAGAAGGCAGAGGAGUGGG [JR_SS2_Sub057] (puzzle: Same State 2)" target_desc="MS2 coat protein" assigned_category=-1
seq_text="CGCUGCGUUUCAUAGGAUAUGUGGUUUUGAACAUGAGGAUCACCCAUGUAGACGUCAAUGGCUCCACAGAAGGGUGACACUAGUG [Aredis] (puzzle: Same State 2)" target_desc="MS2 coat protein" assigned_category=1
seq_text="AUAAAACAUGAGGAUCACCCAUGUCAACAAAGUCGAGGAUAUGGGCAAAUAAAAUAAGAACCAGAAGGCGAAUAAC [salish99_SS1_r3_003] (puzzle: Same State 1)" target_desc="MS2 coat protein" assigned_category=1
seq_text="UGGUAACAUGAGGAUCACCCAUGUCAAAUGAAUCGAGGAUAUGGGAAUUAACAACACAAACUAGAAGGCGAAUUUG [Altered State 1-8 - Jieux - Same State 1] (puzzle: Same State 1)" target_desc="MS2 coat protein" assigned_category=1
seq_text="AACUAUCUAUCUCAGGAUAUCAUGUCAAAGACAUGAGGAUCACCCAUGUACCAGGAAACUGGUUAUGAGAAGGGAGAUAGAUAGA [Mat - Same State 2 - Mod - D38] (puzzle: Same State 2)" target_desc="MS2 coat protein" assigned_category=-1

Prompt line: Dear colleague, could you confirm whether CAAGGACGGACACAGGAUAUCCUCACCUACACAUGAGGAUCACCCAUGUCAUAAAAGAUGGUGCAGGAGAAGGGUGCGGCGUCAA [Zarelaesdi] (puzzle: Same State 2) has apparent KD of MS2 coat protein at or above 0.3 µM?
Response line: -1

Prompt line: Given AGUCCAGCCUGAGCUGGACAGAAGCAUGUACAUGAGGAUCACCCAUGUCAUGUACAAGCUUUUUGCUCGUCUUAAAA [Zipper 46 - 3] (puzzle: Sensor for hsa-mir-208a) , state whether its apparent KD of MS2 coat protein is at least 0.3 µM.
Response line: -1

Prompt line: Please indicate if the recorded apparent KD of MS2 coat protein for UUUAAACAUGAGGAUCACCCAUGUUUUUUCAUGGGAGGAUAUCUGAGUUAAUUAUAUUAAGGAGAAGGCCUAUUUU [× ×•×ª×• ×ž×“×™× ×” × ×—×ª-01] (puzzle: Same State 1) meets or exceeds 0.3 µM.
Response line: -1

Prompt line: Check if apparent KD of MS2 coat protein >= 0.3 µM (inclusive). Item: AGUCCAGCCUGAGCUGGACAAAAGCAUGUACAUGAGGAUCACCCAUGUCAUGUACAAGCUUUUUGCUCGACUUAAAA [Mat - hsa-mir-208a - Mod of JL - D10] (puzzle: Sensor for hsa-mir-208a)
Response line: -1

Prompt line: apparent KD of MS2 coat protein >= 0.3 µM for GGUAUCUCCCGUGAGGAUAUGCGGCGUAGAACAUGAGGAUCACCCAUGUCCUUCGAAUGGGUUACGCAGAAGGCACGACGGUACC [Robot Leg #2] (puzzle: Same State 2) ?
Response line: -1

Prompt line: apparent KD of MS2 coat protein >= 0.3 µM for GAGAGACAUGAGGAUCACCCAUGUAGAAUAGAACAAGGAUAUGUGGAAGGCGGAGGAGAGACAGAAGGUGUAGGAA [JR_SS1_Sub054] (puzzle: Same State 1) ?
Response line: -1

###

test system: MS2 coat protein; experiment: apparent KD of MS2 coat protein, switch ON state; designed switch direction (-1 OFF switch, 1 ON switch): 1; higher = weaker reporter binding; details: FMN input: 0 or 200 uM; Eterna round: R93 (includes R88 designs)
Respond with yes (1) for apparent KD of MS2 coat protein values of 0.02 µM and above, no (0) for values below.

seq_text="CCUAGACAUGAGGAUCACCCAUGUCGAACAAACAAAGGAUAUGGGAGCCGAAGAAGGCUAUUAGAAGGUUGCAAAU [Aisedbi]" assigned_category="yes (1)"
seq_text="AUAUAAAUAAGGUAGGAUAUACUAAAGUAAACAUGAGGAUCACCCAUGUAAAGAAAGAAACUCAUGUAGAAGGACCAUAUAUAUA [viburnum 1]" assigned_category="yes (1)"
seq_text="AAUCCAACUAGUCAGGAUAUCAGGCGUAAGACAUGAGGAUCACCCAUGUACUUAGUACAAGUAACUGAGAAGGGACAGGGUGACC [JR_SS002_Sub409]" assigned_category="yes (1)"

Prompt line: Given the entry CCGAUGGUAUACUAGGAUAUGGGCGCCCUUACAUGAGGAUCACCCAUGUUAUCACAAAGCCGCGGCCAGAAGGAGUUCAUGGGAG [Tieronsove] , answer whether its apparent KD of MS2 coat protein meets or surpasses 0.02 µM.
Response line: yes (1)

Prompt line: Answer whether apparent KD of MS2 coat protein of `AUAUAUAUAAGGUAGGAUAUCCAAAAGUAAACAUGAGGAUCACCCAUGUAAAAAAUCUAAAAAUGGGAGAAGGACCAUAUAUAUA` is greater than or equal to 0.02 µM.
Response line: no (0)

Prompt line: Tell me whether apparent KD of MS2 coat protein is at least 0.02 µM here: ACAAAACAUGAGGAUCACCCAUGUCAAGCUAAUCAAGGAUAUGGGAGCGGUCCGGUGCGAUCAGAAGGUGAUUAGA [Gecelear]
Response line: yes (1)

Prompt line: Threshold query (apparent KD of MS2 coat protein >= 0.02 µM) on GGAAAUAAAAGAGAGGAUAUCCAAAAGGAAACAUGAGGAUCACCCAUGUAAAAGAAAGGAAAAUGGGAGAAGGCUCAAAAUAAAG [salish99-ss2-004]
Response line: yes (1)

Data origin, for the record: the supplement of paper PMC9170038
